target: human emopamil binding protein and human 7-dehydrocholesterol reductase (hEBP-DHCR7) (Homo sapiens)
PROPERTY_MEASURED: pKi
Value format note: pKi is -log10 of concentration (mol/L); just state the number.

Entry under test: CC(C)n1nc(-c2cccc(C(F)(F)F)n2)cc1[C@H]1[C@@H]2C[C@@H](N3CCC4(C3)CS(=O)(=O)C4)C[C@@H]21 (single isomer, unassigned) . Its pKi was 7.88

Entry under test: "CCn1nc(-c2ccnc(C(F)(F)F)c2)cc1[C@H]1[C@@H]2C[C@@H](N3CCC4(C3)CS(=O)(=O)C4)C[C@@H]21" . Its pKi was 7.70

Entry under test: O=S1(=O)CC2(CCN([C@H]3C[C@@H]4[C@H](C3)[C@H]4c3cc(C(F)(F)F)nn3CC(F)F)CC2)C1 (single isomer, unassigned) . Its pKi was 7.19

Entry under test: CC(C)n1nc(-c2cncc(C(F)(F)F)c2)cc1[C@H]1[C@@H]2C[C@H](N3CCC4(CC3)CS(=O)(=O)C4)C[C@@H]21 (single isomer, unassigned) . Its pKi was 7.74

---

target: human EBP (Homo sapiens, UniProt Q15125)
Sequence (Q15125 whole entry): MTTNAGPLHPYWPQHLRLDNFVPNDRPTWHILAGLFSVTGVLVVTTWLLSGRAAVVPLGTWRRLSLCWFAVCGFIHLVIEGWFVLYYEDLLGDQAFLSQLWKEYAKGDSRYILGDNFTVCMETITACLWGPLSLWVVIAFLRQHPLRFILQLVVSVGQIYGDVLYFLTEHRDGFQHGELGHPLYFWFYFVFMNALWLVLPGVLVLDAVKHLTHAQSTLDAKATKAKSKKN
Catalogue of pKi values
Value format note: pKi is -log10 of concentration (mol/L); just state the number.

Reference set, count: 2
CCn1nc(-c2cncc(C(F)(F)F)c2)cc1[C@H]1[C@@H]2C[C@H](N3CCC4(C3)CS(=O)(=O)C4)C[C@@H]21 (single isomer, unassigned) [Compound 25]; 7.59
CC(C)n1nc(-c2ccc(C(F)(F)F)cc2)cc1[C@H]1[C@@H]2C[C@H](N3CCC4(C3)CS(=O)(=O)C4)C[C@@H]21 [Compound 5]; 7.66

Known value: human EBP (Homo sapiens, UniProt Q15125) pKi of the compound CC(C)n1nc(-c2cncc(C(F)(F)F)c2)cc1[C@H]1[C@@H]2C[C@@H](N3CCC4(CC3)CS(=O)(=O)C4)C[C@@H]21 (single isomer, unassigned) [Compound 38] equals 7.59

Known value: human EBP (Homo sapiens, UniProt Q15125) pKi of the compound CC(C)n1nc(-c2cncc(C(F)(F)F)c2)nc1[C@H]1[C@@H]2C[C@@H](N3CCC4(C3)CS(=O)(=O)C4)C[C@@H]21 (single isomer, unassigned) [Compound 16] equals 7.70

Known value: human EBP (Homo sapiens, UniProt Q15125) pKi of the compound CC(C)n1nc(-c2ccnc(C(F)(F)F)n2)cc1[C@H]1[C@@H]2C[C@H](N3CCC4(C3)CS(=O)(=O)C4)C[C@@H]21 [Compound 15] equals 7.72

---

Catalogue of pKi values
target: human emopamil binding protein and human 7-dehydrocholesterol reductase (hEBP-DHCR7) (Homo sapiens, UniProt Q15125)
Value format note: pKi is -log10 of concentration (mol/L); just state the number.

CC(C)n1nc(-c2cnc(C(F)(F)F)nc2)cc1[C@H]1[C@@H]2C[C@@H](N3CCC4(C3)CS(=O)(=O)C4)C[C@@H]21 (single isomer, unassigned) [Compound 102]; 7.37

Entry under test: CCn1nc(-c2cncc(F)c2)cc1[C@H]1[C@@H]2C[C@@H](N3CCC4(CC3)CS(=O)(=O)C4)C[C@@H]21 (single isomer, unassigned) [Compound 66*] . Its pKi was 7.58

Entry under test: CC(C)n1nc(-c2ccnc(C(F)(F)F)n2)cc1[C@H]1[C@@H]2C[C@@H](N3CCC4(CC3)CS(=O)(=O)C4)C[C@@H]21 (single isomer, unassigned) [Compound 49] . Its pKi was 7.19

Entry under test: CC(C)n1nc(-c2ccc(C(F)(F)F)nc2)cc1[C@H]1[C@@H]2C[C@@H](N3CCC4(C3)CS(=O)(=O)C4)C[C@@H]21 (single isomer, unassigned) [Compound 13] . Its pKi was 7.43

Entry under test: CC(C)n1nc(-c2ccc(C(F)(F)F)nc2)cc1[C@H]1[C@@H]2C[C@H](N3CCC4(C3)CS(=O)(=O)C4)C[C@@H]21 (single isomer, unassigned) [Compound 14] . Its pKi was 7.89

---

system: EpiSC-derived OPCs; assay: In vitro phenotypic screening of OPCs (MBP high-content imaging); type: cell-based; conditions: Mus musculus, 72 h; percentage of MBP-positive oligodendrocytes, 3 days, 0.5 nM to 1000 nM; read-out: OPC EC50
Catalogue of EC50 values
Put down the number, then write its unit next to it.

Reference set, count: 2
CC(C)n1nc(C(F)(F)F)cc1[C@H]1[C@@H]2C[C@@H](N3CCC4(C3)CS(=O)(=O)C4)C[C@@H]21 (single isomer, unassigned) [Compound 22]; 53 nM
CC(C)n1nc(-c2cncc(C(F)(F)F)c2)cc1[C@H]1[C@@H]2C[C@@H](N3CCC4(CC3)CS(=O)(=O)C4)C[C@@H]21 (single isomer, unassigned) [Compound 38]; 4.9 nM

Known value: EpiSC-derived OPCs EC50 of the molecule CC(C)n1nc(C2CCC(F)(F)CC2)cc1[C@H]1[C@@H]2C[C@@H](N3CCC4(C3)CS(=O)(=O)C4)C[C@@H]21 [Compound 108] equals 102 nM

Known value: EpiSC-derived OPCs EC50 of the molecule CC(C)n1nc(-c2cncc(C(F)(F)F)c2)cc1[C@H]1[C@@H]2C[C@H](N3CC[C@]4(CCS(=O)(=O)C4)C3)C[C@@H]21 (single isomer, unassigned) [Compound 10*] equals 13 nM

Known value: EpiSC-derived OPCs EC50 of the molecule CC(C)n1nc(-c2cnc(C(F)(F)F)nc2)cc1[C@H]1[C@@H]2C[C@H](N3CCC4(C3)CS(=O)(=O)C4)C[C@@H]21 [Compound 6] equals 200 nM

Known value: EpiSC-derived OPCs EC50 of the molecule CC(C)n1nc(-c2ccnc(C(F)(F)F)n2)cc1[C@H]1[C@@H]2C[C@@H](N3CCC4(C3)CS(=O)(=O)C4)C[C@@H]21 [Compound 28] equals 39 nM

---

Catalogue of pEC50 values
system: EpiSC-derived OPCs; test: In vitro phenotypic screening of OPCs (MBP high-content imaging); format: cell-based; settings: Mus musculus, 72 h; percentage of MBP-positive oligodendrocytes, 3 days, 0.5 nM to 1000 nM; read-out: OPC EC50
Value format note: pEC50 is -log10 of concentration (mol/L); just state the number.

CC(C)n1nc(-c2ccnc(C(F)(F)F)n2)cc1[C@H]1[C@@H]2C[C@H](N3CCC4(C3)CS(=O)(=O)C4)C[C@@H]21; 8.18

Entry under test: CC(C)n1nc(-c2ccnc(C(F)(F)F)c2)cc1[C@H]1[C@@H]2C[C@@H](N3CCC4(C3)CS(=O)(=O)C4)C[C@@H]21 (single isomer, unassigned) . Its pEC50 was 7.82

Entry under test: CC(C)n1nc(-c2cncc(C(F)(F)F)c2)nc1[C@H]1[C@@H]2C[C@H](N3CCC4(C3)CS(=O)(=O)C4)C[C@@H]21 (single isomer, unassigned) . Its pEC50 was 6.38

Entry under test: CC(C)n1nc(-c2cncc(C(F)(F)F)c2)cc1[C@H]1[C@@H]2C[C@@H](N3CC[C@@]4(CCS(=O)(=O)C4)C3)C[C@@H]21 (single isomer, unassigned) . Its pEC50 was 7.43

Entry under test: CC(C)n1nc(-c2cccc(C(F)(F)F)c2)cc1[C@H]1[C@@H]2C[C@H](N3CCC4(C3)CS(=O)(=O)C4)C[C@@H]21 (single isomer, unassigned) . Its pEC50 was 8.89

---

Catalogue of Ki values
target: human emopamil binding protein and human 7-dehydrocholesterol reductase (hEBP-DHCR7) (Homo sapiens, UniProt Q15125)
Reply with just the number (in nM).

Reference set, count: 2
CC(C)n1nc(-c2cccc(C(F)(F)F)n2)cc1[C@H]1[C@@H]2C[C@H](N3CCC4(C3)CS(=O)(=O)C4)C[C@@H]21 (single isomer, unassigned); 12
CC(C)n1nc(-c2cccc(C(F)(F)F)c2)nc1[C@H]1[C@@H]2C[C@@H](N3CCC4(C3)CS(=O)(=O)C4)C[C@@H]21; 11.7

Entry under test: CC(C)n1nc(-c2cncc(C(F)(F)F)c2)cc1[C@H]1[C@@H]2C[C@@H](N3CCC4(C3)CS(=O)(=O)C4)C[C@@H]21 (single isomer, unassigned) . Its Ki was 16.2

---

Catalogue of Ki values
target: human EBP (Homo sapiens)
Put down the number, then write its unit next to it.

Reference set, count: 4
CC(C)n1nc(-c2cccc(C(F)(F)F)c2)cc1[C@H]1[C@@H]2C[C@@H](N3CCC4(C3)CS(=O)(=O)C4)C[C@@H]21 (single isomer, unassigned); 38 nM
CC(C)n1nc(-c2ccnc(C(F)(F)F)c2)cc1[C@H]1[C@@H]2C[C@@H](N3CCC4(C3)CS(=O)(=O)C4)C[C@@H]21 (single isomer, unassigned); 30 nM
CC(C)n1nc(C(F)(F)F)cc1[C@H]1[C@@H]2C[C@H](N3CCC4(C3)CS(=O)(=O)C4)C[C@@H]21 (single isomer, unassigned); 13 nM
CC(C)n1nc(-c2cncc(C(F)(F)F)c2)cc1[C@H]1[C@@H]2C[C@@H](N3CC4(C3)CS(=O)(=O)C4)C[C@@H]21 (single isomer, unassigned); 51 nM

Entry under test: CC(C)n1nc(-c2ccnc(C(F)(F)F)c2)cc1[C@H]1[C@@H]2C[C@H](N3CCC4(C3)CS(=O)(=O)C4)C[C@@H]21 (single isomer, unassigned) . Its Ki was 16 nM
